- procedure-summary: ATG_MRE_CIS: Attagene CIS-FACTORIAL HepG2 Assay for human Metal Responsive Element (MRE) (AID 2282954)
- measurement-setup: HepG2 MRE cis-reporter transcription, Attagene multiplex; actives raise or lower the signal
- Description: ATG_CIS is a cell-based, multiplexed-readout assay that uses HepG2, a human liver cell line, with measurements taken at 24 hours after chemical dosing in a 24-well plate.ATG_MRE_CIS is one of 52 assay component(s) measured or calculated from the ATG_CIS assay. […] This assay endpoint, ATG_MRE_CIS, was analyzed with bidirectional fitting relative to DMSO as the negative control and baseline of activity. […]
Active and inactive are the calls of the source. How the source made its calls: active means hit-call score of the fitted dose curve at least 0.9, where 1 is the maximum; inactive means score below 0.9.
readout: AC50

Param item = CC1(c2ccc(Oc3ccccc3)cc2)OC(=O)N(Nc2ccccc2)C1=O (stereo not given) ; retrieve measured AC50. inactive

Param item = "CN1CSC(=S)N(C)C1" ; retrieve measured AC50. 50 µM (active)

Param item = "N#Cc1c(Cl)c(Cl)c(Cl)c(C#N)c1Cl" ; retrieve measured AC50. inactive

Param item = "COP(=O)(OC)OC=C(Cl)Cl" ; retrieve measured AC50. 36.7 µM (active)

Next:
Param item = "COP(=S)(OC)Oc1ccc([N+](=O)[O-])cc1" ; retrieve measured AC50. inactive

* * *

- Read-out: 3-Hydroxy-3-Methylglutaryl-CoA Synthase 2 (HMGCS2), HMGCS2 (gene 3158)
- procedure-summary: LTEA_HepaRG_HMGCS2: Life Technologies and Expression Analysis (LTEA) Assay for 3-Hydroxy-3-Methylglutaryl-CoA Synthase 2 (HMGCS2) using HepaRG (AID 2283504)
- measurement-setup: mRNA level, 48 h; actives raise or lower the signal
Activity calls are given as the source filed them. Rule for the calls: active = hit-call score of the fitted dose curve at least 0.9, where 1 is the maximum; inactive = score below 0.9.
# output must be one of T for active, F for inactive

Which outcome did this test record for the molecule "O=C(O)COc1ccc(Cl)cc1Cl" ? F

Which outcome did this test record for the molecule "CNC(=O)/C=C(\C)OP(=O)(OC)OC" ? F

Which outcome did this test record for the molecule "CCCN(CCOc1c(Cl)cc(Cl)cc1Cl)C(=O)n1ccnc1" ? T

Which outcome did this test record for the molecule "O=C1c2ccccc2C(=O)N1SC(Cl)(Cl)Cl" ? F

* * *

- Read-out: Matrix Metallopeptidase 9 (MMP9), MMP9 (gene 4318)
- procedure-summary: BSK_KF3CT_MMP9: BioMAP Diversity Plus: KF3CT Assay for Matrix Metallopeptidase 9 (MMP9) Biomarker Activity (AID 2283074);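 on AC50: MMP9 protein level quantified by ELISA in the co-culture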
- measurement-setup: primary human keratinocytes with fibroblasts; actives raise or lower the signal
Activity calls are given as the source filed them. How the source made its calls: active means hit-call score of the fitted dose curve at least 0.9, where 1 is the maximum; inactive means score below 0.9.
readout: AC50

Some entries whose results are on file:
Param item = "O=[N+]([O-])/N=C1\NCCN1Cc1ccc(Cl)nc1" ; retrieve measured AC50. inactive

Param item = "C[C@H]1[C@H](c2ccc(Cl)cc2)SC(=O)N1C(=O)NC1CCCCC1" ; retrieve measured AC50. 9.22 µM (active)

Param item = "CCC(C)(C)C(=O)OC1=C(c2ccc(Cl)cc2Cl)C(=O)OC12CCCCC2" ; retrieve measured AC50. 20 µM (active)

Param item = "COP(=S)(OC)Oc1ccc(SC)c(C)c1" ; retrieve measured AC50. inactive

Param item = CCC(C)(NC(=O)c1cc(Cl)c(C)c(Cl)c1)C(=O)CCl (stereo unspecified) ; retrieve measured AC50. 7.45 µM (active)

Param item = CCOC1Oc2ccc(OS(C)(=O)=O)cc2C1(C)C (stereo unspecified) ; retrieve measured AC50. inactive

Param item = CCC(C)Nc1c([N+](=O)[O-])cc(C(C)(C)C)cc1[N+](=O)[O-] (stereo unspecified) ; retrieve measured AC50. inactive

Param item = "Oc1cc(Cl)ccc1Oc1ccc(Cl)cc1Cl" ; retrieve measured AC50. 15.2 µM (active) [middle of 4 runs]

Next:
Param item = "CCc1ccc(C(=O)NN(C(=O)c2cc(C)cc(C)c2)C(C)(C)C)cc1" ; retrieve measured AC50. inactive

Param item = "CCOCN(C(=O)CCl)c1c(C)cccc1CC" ; retrieve measured AC50. 12.7 µM (active)

Param item = "COC(=O)c1ccccc1S(=O)(=O)NC(=O)Nc1nc(C)nc(OC)n1" ; retrieve measured AC50. inactive

Hey, just so you know, these numbers are from PubChem BioAssay (EPA / NIEHS).
